Biological target: Protein Tat (Human immunodeficiency virus type 1 group M subtype B (isolate HXB2)) (UniProt P04608)
Sequence (P04608 whole entry, looked up): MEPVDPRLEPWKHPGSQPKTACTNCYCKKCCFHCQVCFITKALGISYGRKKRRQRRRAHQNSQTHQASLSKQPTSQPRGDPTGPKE
Experiment: inhibitors of Tat binding to TAR RNA, dose response, counter-screen for Vif-APOBEC3G degradation inhibitor project, biochemical, fluorescence polarization, FAM-labeled TAR RNA (AID 1117361)
pIC50: −log10 of the molar value.

{"compound": "CN1CCN(C2=C(Cl)C(=O)c3ccccc3C2=O)CC1", "pIC50": 4.40}
{"compound": "Cc1c(O)cc2c(c1O)C(=O)CC(c1ccc(O)cc1)O2 (stereo unspecified)", "pIC50": 4.43}
{"compound": "O=C(O)c1ccc(-n2cccc2/C=C2/NC(=O)N(c3cccc(Cl)c3)C2=O)cc1", "pIC50": 5.11}
{"compound": "CCN(CC)c1ccc2oc(=O)c(C)nc2c1", "pIC50": 4.69}
{"compound": "CCCn1c(=N)n(CC(O)c2ccco2)c2ccccc21 (stereo unspecified)", "pIC50": 4.11}
{"compound": "Cn1cccc1/C=C1/C(=O)NC(=O)N(Cc2ccccc2)C1=O", "pIC50": 4.17}
{"compound": "Cn1c(N)c(C(=O)COC(=O)C2CCCCC2)c(=O)n(C)c1=O", "pIC50": 4.12}
{"compound": "Cc1cccc(NC(=S)NC(=O)/C=C/c2ccco2)c1", "pIC50": 4.70}
{"compound": "O=C(Nc1ccccc1F)c1coc(=O)c(Br)c1", "pIC50": 4.82}
{"compound": "O=[N+]([O-])c1ccc(Sc2nc3ccccc3o2)c([N+](=O)[O-])c1", "pIC50": 4.78}
{"compound": "Cc1ccc(/C=C2\\SC(=S)N(c3cccnc3)C2=O)o1", "pIC50": 5.26}
{"compound": "N=C1/C(=C/c2ccc(Br)o2)C(=O)N=C2SC(CC(=O)N3CCCC3)=NN12", "pIC50": 4.27}
{"compound": "COc1ccccc1NCCC(=O)OCC(=O)NCc1ccco1", "pIC50": 4.24}
{"compound": "CCN(CC)C(=O)c1ccc(CS(=O)(=O)c2ccc(OC)cc2)o1", "pIC50": 5.63}
{"compound": "C=C(C)C(=O)Nc1cccc(C2=NOC3(C2)C[C@H](C(N)=O)N(C(=O)C(c2ccccc2)c2ccccc2)C3)c1 (stereo partly specified)", "pIC50": 4.50}
{"compound": "COc1ccc2c(c1)n([O-])c1c([n+]2=O)CCC1", "pIC50": 4.28}
{"compound": "C=C(C)C(=O)Nc1cccc(C2=NOC3(C2)C[C@H](C(N)=O)N(C(=O)COc2ccc(Cl)cc2)C3)c1 (stereo partly specified)", "pIC50": 4.76}
{"compound": "CC1(C)N([O-])c2cc([N+](=O)[O-])ccc2[N+]1=O", "pIC50": 4.21}
{"compound": "Oc1ccc(-c2cn3c(n2)SCC3)cc1O", "pIC50": 4.14}
{"compound": "CCc1cc(=O)n2[nH]c(C)c(-c3ccccc3OC)c2n1", "pIC50": 4.90}
{"compound": "CCN1CCc2c(C#N)c(NCc3ccccc3)nc(N(CC)CC)c2C1", "pIC50": 4.23}
{"compound": "CN(Cc1cnc2nc(N)nc(N)c2n1)c1ccc(C(=O)NC(CCC(=O)O)C(=O)O)cc1 (stereo unspecified)", "pIC50": 4.40}
{"compound": "CCOC(=O)c1c(C)oc2c1c(C=NCc1ccccn1)c(O)c1ccccc12", "pIC50": 5.38}
{"compound": "CCNC(=O)COC(=O)c1cc(-c2ccco2)nc2ccccc12", "pIC50": 5.09}
{"compound": "CCOC(=O)c1cc2cc(F)ccc2nc1C", "pIC50": 5.20}
{"compound": "O=C(CSc1nc(-c2ccco2)cc(C(F)(F)F)n1)N1CCc2ccccc2C1", "pIC50": 4.45}
{"compound": "Oc1ccc(NCc2ccccc2OCc2ccccc2)cc1", "pIC50": 4.29}
{"compound": "CC(=O)Nc1ccc(C=C(C#N)c2ccc(C)cc2)cc1", "pIC50": 4.61}
{"compound": "C/C(=N\\Nc1ccc(Cl)c(C(=O)O)c1)c1ccc[nH]1", "pIC50": 4.67}
{"compound": "Nc1ccc(Nc2ccccc2)c(S(=O)(=O)O)c1", "pIC50": 4.50}
{"compound": "O=C1N=C(N2CCN(c3ccccc3)CC2)S/C1=C\\c1ccco1", "pIC50": 4.93}
{"compound": "Cc1cc(C)nc(N2CCC(C(=O)O)CC2)n1", "pIC50": 4.14}
{"compound": "NC(=O)c1c(NC(=O)c2ccc(S(=O)(=O)N3CCOCC3)cc2)sc2c1CCCCC2", "pIC50": 4.23}
{"compound": "COc1cc(CC(=O)OCC(=O)Nc2cccc([N+](=O)[O-])c2)cc(OC)c1OC", "pIC50": 4.57}
{"compound": "CN1CCC(N(C)C(=O)COc2ccccc2-c2ccccc2)CC1", "pIC50": 4.20}
{"compound": "CN(C)c1ccc(N2C(=O)CC(Nc3ccc(N4CCOCC4)cc3)C2=O)cc1 (stereo unspecified)", "pIC50": 5.00}
{"compound": "CC(=O)Nc1cccc(Oc2ncnc3scc(-c4ccccc4)c23)c1", "pIC50": 4.51}
{"compound": "O=C(/C(=N/N=C/c1ccc(O)c(O)c1O)c1ccccc1)c1ccccc1", "pIC50": 4.45}
{"compound": "O=C(O)c1cc2cccc(S(=O)(=O)N3CCOCC3)c2cc1O", "pIC50": 4.10}
{"compound": "Cc1nc2ncccn2c1-c1csc(NCc2ccco2)n1", "pIC50": 5.22}
{"compound": "O=[N+]([O-])c1c(NCCCO)cc(SCc2ccco2)c2nonc12", "pIC50": 4.78}
{"compound": "Clc1ccccc1N=Nc1ccccn1", "pIC50": 4.46}
{"compound": "Cc1ccc(C(=O)Nc2ccc(O)c(C(=O)O)c2)o1", "pIC50": 4.71}
{"compound": "CCc1ccc(N2C(=O)NC(=O)/C(=C\\C=C\\c3ccco3)C2=O)cc1", "pIC50": 4.35}
{"compound": "CC(=C\\c1ccco1)/C=C1/SC(=S)N(CC(=O)O)C1=O", "pIC50": 5.06}
{"compound": "CC(C)(CS(=O)(=O)[O-])NC(=O)CC[N+](C)(C)CCO", "pIC50": 4.76}
